TEST_TARGET: 5-HT2B receptor (Homo sapiens)
Construct: host or cells: HEK293
Sequence (P41595 whole entry): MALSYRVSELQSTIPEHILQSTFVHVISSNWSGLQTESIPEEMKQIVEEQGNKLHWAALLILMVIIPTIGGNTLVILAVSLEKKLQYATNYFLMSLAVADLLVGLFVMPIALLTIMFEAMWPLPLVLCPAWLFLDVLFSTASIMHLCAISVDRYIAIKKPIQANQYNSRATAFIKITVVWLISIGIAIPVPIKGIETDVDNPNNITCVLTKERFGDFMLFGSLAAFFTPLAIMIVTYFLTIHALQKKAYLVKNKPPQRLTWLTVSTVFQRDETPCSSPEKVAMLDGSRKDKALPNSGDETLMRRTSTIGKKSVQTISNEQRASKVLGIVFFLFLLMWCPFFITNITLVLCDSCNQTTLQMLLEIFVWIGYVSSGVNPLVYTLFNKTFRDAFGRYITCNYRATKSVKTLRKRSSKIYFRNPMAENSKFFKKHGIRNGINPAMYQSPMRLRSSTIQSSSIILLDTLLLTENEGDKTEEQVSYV
ASSAY_PROCEDURE: cell-based
EXPERIMENTAL_PARAMETERS: Ca^2+ flux, agonist; read-out: 5-HT2B EC50
Listed here: items and their measured EC50.

Give its EC50 value. Item: CCN(CC)C(=O)[C@@H]1C=C2c3cccc4[nH]cc(c34)C[C@H]2N(CCc2ccccc2OC)C1
> 10 µM

What do you get for CC[C@@H](C)NC(=O)[C@@H]1C=C2c3cccc4[nH]cc(c34)C[C@H]2N(CCC(F)(F)F)C1 ?
> 10 µM

What do you get for CCCN1C[C@H](C(=O)N(CC)CC)C=C2c3cccc4[nH]cc(c34)C[C@H]21 ?
0.104 µM

What do you get for CCC(CC)NC(=O)[C@@H]1C=C2c3cccc4[nH]c(Br)c(c34)C[C@H]2N(C)C1 ?
> 10 µM

###

ASSAY_PROCEDURE: Metabolic stability in rat liver microsomes (RLM)
EXPERIMENTAL_PARAMETERS: RLM, 0.50 mg protein per mL
Doc: threshold 5 min (exclusive). Items with t1/2 beneath it return T; others return F.

C=CCN1C[C@@H](C(=O)N[C@H](C)CC)C=C2c3cccc4[nH]cc(c34)C[C@H]21 [Compound 8a] | T
C[C@H]1C[C@H](C)N1C(=O)[C@@H]1C=C2c3cccc4[nH]cc(c34)C[C@H]2N(C)C1 [Int11] | F
CCN(CC)C(=O)[C@@H]1C=C2c3cccc4[nH]cc(c34)C[C@H]2N(CCCF)C1 [Compound 2] | F
CCN(CC)C(=O)[C@@H]1C=C2c3cccc4[nH]cc(c34)C[C@H]2N(CCc2ccccn2)C1 [Compound 23] | T

Regarding CCN(CC)C(=O)[C@@H]1C=C2c3cccc4[nH]cc(c34)C[C@H]2N(CCc2cccc(OC)c2)C1 [Compound 20] , kindly confirm whether its t1/2 is beneath 5 min.
T

What do you get for CC[C@@H](C)NC(=O)[C@@H]1C=C2c3cccc4[nH]cc(c34)C[C@H]2N(C)C1 [Int8] ?
F

What do you get for CCC[C@@H](C)NC(=O)[C@@H]1C=C2c3cccc4[nH]cc(c34)C[C@H]2N(CCC)C1 [Compound 7] ?
T

What do you get for CCN(CC)C(=O)[C@H]1C=C2c3cccc4[nH]cc(c34)C[C@H]2N(CCCF)C1 [Compound 2a] ?
F

What do you get for CCCN1C[C@H](C(=O)NC(CC)CC)C=C2c3cccc4[nH]cc(c34)C[C@H]21 [Compound 6] ?
T

What do you get for CCN(CC)C(=O)[C@@H]1C=C2c3cccc4[nH]cc(c34)C[C@H]2N(CCc2ccc(OC)cc2)C1 [Compound 21] ?
T

What do you get for CCN(CC)C(=O)[C@@H]1C=C2c3cccc4[nH]cc(c34)C[C@H]2N(CCc2ccccc2OC)C1 [Compound 11] ?
T

What do you get for CCN(CC)C(=O)[C@@H]1C=C2c3cccc4[nH]cc(c34)C[C@H]2N(Cc2ccccn2)C1 [Compound 22] ?
F

What do you get for CC[C@@H](C)NC(=O)[C@H]1C=C2c3cccc4[nH]cc(c34)C[C@H]2N(CC)C1 [Compound 5a] ?
T

What do you get for CCCN1C[C@@H](C(=O)N[C@H](C)CC)C=C2c3cccc4[nH]cc(c34)C[C@H]21 [Compound 3a] ?
T

What do you get for CCC(CC)NC(=O)[C@@H]1C=C2c3cccc4[nH]cc(c34)C[C@H]2N(C)C1 [Int14] ?
F

What do you get for CCCN1C[C@H](C(=O)N2[C@@H](C)C[C@@H]2C)C=C2c3cccc4[nH]cc(c34)C[C@H]21 [Compound 4] ?
F

What do you get for CCC[C@@H](C)NC(=O)[C@@H]1C=C2c3cccc4[nH]cc(c34)C[C@H]2N(C)C1 [Int17] ?
F

What do you get for CCCN1C[C@H](C(=O)N[C@H](C)CC)C=C2c3cccc4[nH]cc(c34)C[C@H]21 [Compound 3] ?
T
